# assay.summary: qHTS assay for identifying genotoxic compounds that show differential cytotoxicity against isogenic chicken DT40 cell lines with known DNA damage response pathways - wild type cell line (AID 743012); note: nearly all actives have a fitted effect of over 60% in size
# condition.context: DT40 wild type chicken cells viability, CellTiter-Glo, 40 h; series mostly up to 68.4 µM
# From the text: U.S. Tox21 Program National Center for Advancing Translational Sciences [NCATS] NIH Chemical Genomics Center [NCGC] U.S. Environmental Protection Agency [EPA] National Institutes of Environmental Health Sciences [NIEHS] National Toxicology Program [NTP] U.S. Food and Drug Administration [FDA] Tox21 Assay Overview: DNA repair pathways play a critical role in cellular homeostasis by repairing DNA damage induced by endogenous processes and xenobiotics. […]
Inconclusive results are not listed. Activity calls are given as the source filed them. Calls come from the whole dose curve; as a rule, active = well fitted cell-killing curve with a large enough effect in the repeat runs; inconclusive = weak or mixed curves, or effect the other way; inactive = no such curve, though single readings can be large or run the other way.
Would you mind answering with one of these outcomes? 1 = active, 0 = inactive

CC1(C)S[C@@H]2[C@H](NC(=O)C(N)c3ccccc3)C(=O)N2[C@H]1C(=O)OC1OC(=O)c2ccccc21 (some centres undefined)
0
CS(=O)(=O)Nc1cc2occ(NC=O)c(=O)c2cc1Oc1ccccc1
0
CO[C@H]1C=CO[C@@]2(C)Oc3c(C)c(O)c4c(O)c(c5c(nc6cc(C)ccn65)c4c3C2=O)NC(=O)/C(C)=C\C=C[C@H](C)[C@H](O)[C@@H](C)[C@@H](O)[C@@H](C)[C@H](OC(C)=O)[C@@H]1C
1
CCOC(=O)CCC(=O)O[C@H]1[C@H](O[C@@H]2[C@@H](C)[C@H](O[C@H]3C[C@@](C)(OC)[C@@H](O)[C@H](C)O3)[C@@H](C)C(=O)O[C@H](CC)[C@@](C)(O)[C@H](O)[C@@H](C)C(=O)[C@H](C)C[C@@]2(C)O)O[C@H](C)C[C@@H]1N(C)C
0
CN1CCCC(CN2c3ccccc3Sc3ccccc32)C1 (centres undefined)
1
CC(C)(S)[C@@H](N)C(=O)O
0

Given CCCN(CC)C(CC)C(=O)Nc1c(C)cccc1C (centres undefined) , state the outcome it received in this test. 0

Please share the test call associated with C=CCNC1=C2C[C@@H](C)C[C@H](OC)[C@H](O)[C@@H](C)/C=C(\C)[C@H](OC(N)=O)[C@@H](OC)/C=C\C=C(/C)C(=O)NC(=CC1=O)C2=O . 1

I'd appreciate the recorded outcome for COc1ccc(CCNC[C@H](O)c2ccc(O)cc2)cc1OC from this test. 0

----------
# assay.summary: qHTS assay to identify small molecule antagonists of the thyroid receptor (TR) signaling pathway - cell viability counter screen (AID 743064); note: nearly all actives have a fitted effect of over 50% in size; note: potency is the fitted concentration of half-maximal effect
# condition.context: GH3.TRE-Luc viability, CellTiter-Fluor, 24 h; series mostly up to 70.3 µM
Results filed as inconclusive are left out. Active and inactive are the calls of the source. Calls come from the whole dose curve; as a rule, active = well fitted cell-killing curve with a large enough effect in the repeat runs; inconclusive = weak or mixed curves, or effect the other way; inactive = no such curve, though single readings can be large or run the other way.
measure.name: Potency

CC(=O)Nc1ccc(NC(=S)NC(=O)c2ccc(C(C)(C)C)cc2)cc1
8.41 µM (active)
NC[C@@H]1O[C@H](O[C@H]2[C@@H](O)[C@H](O[C@@H]3[C@@H](O)[C@H](N)C[C@H](N)[C@H]3O[C@H]3O[C@H](CO)[C@@H](O)[C@H](O)[C@H]3N)O[C@@H]2CO)[C@H](N)[C@@H](O)[C@@H]1O
inactive
CCCN(CC)C(CC)C(=O)Nc1c(C)cccc1C (stereo unspecified)
inactive
C/C=C1\NC(=O)[C@H]2CSSCC/C=C/[C@H](CC(=O)N[C@H](C(C)C)C(=O)N2)OC(=O)C(C(C)C)NC1=O (stereo partly specified)
0.0119 µM (active)
C#C[C@]1(OC(C)=O)CC[C@H]2[C@@H]3CCC4=CC(=O)CC[C@@H]4[C@H]3CC[C@@]21C
inactive

Hey, can you go through the list below and give me Potency for every item?
1. O=C(O)c1cccc(/C=C2/C[C@@H]3[C@@H](/C=C/[C@@H](O)C4CCCCC4)[C@H](O)C[C@@H]3O2)c1
2. CCCCCCCCCCCCCCCCCCOP(=O)([O-])OC1CC[N+](C)(C)CC1
3. CC1=C[C@H](O)CC(C)(C)[C@H]1/C=C/C(C)=C/C=C/C(C)=C/C=C/C=C(C)/C=C/C=C(C)/C=C/C1=C(C)C[C@@H](O)CC1(C)C
4. CC(=O)Nc1c(I)c(C(=O)N[C@H]2C(O)O[C@H](CO)[C@@H](O)[C@@H]2O)c(I)c(N(C)C(C)=O)c1I (stereo partly specified)
5. CNC(=O)c1c(I)c(C(=O)NCC(=O)Nc2c(I)c(C(=O)O)c(I)c(C(=O)NCCO)c2I)c(I)c(N(C)C(C)=O)c1I
6. Cn1nnnc1SCC1=C(C(=O)O)N2C(=O)[C@@H](NC(=O)[C@H](O)c3ccccc3)[C@H]2SC1

1: inactive; 2: inactive; 3: 23.7 µM (active); 4: inactive; 5: inactive; 6: inactive

Batch request: Potency per item, same order as input.
1. CCCCCC(O)/C=C/C=O (stereo unspecified)
2. CCN(CC)CCCC(C)Nc1cc(/C=C/c2ccccc2Cl)nc2cc(Cl)ccc12 (stereo unspecified)
3. CC[C@H](CC[C@@H](C)[C@H]1CC[C@H]2[C@@H]3CC=C4C[C@@H](O)CC[C@]4(C)[C@H]3CC[C@]12C)C(C)C
4. O=P(O)(O)OC(CO)CO
5. COc1ccc(C[C@H](N)C(=O)N[C@H]2[C@@H](O)[C@H](n3cnc4c(N(C)C)ncnc43)O[C@@H]2CO)cc1
6. COc1ccc(/C=C/C(=O)OCCC(C)C)cc1
7. c1ccc2c(CCC3CCNCC3)c[nH]c2c1

1: inactive; 2: 26.6 µM (active); 3: inactive; 4: inactive; 5: 11.9 µM (active); 6: inactive; 7: 18.8 µM (active)

Each compound below has a recorded value; state its Potency.
1. C[C@H](CCCC(C)(C)O)[C@H]1CC[C@H]2[C@@H]3CC=C4C[C@@H](O)CC[C@]4(C)[C@H]3CC[C@]12C
2. C=CCSSSCC=C
3. Cc1cc(-c2ccc(N=Nc3c(S(=O)(=O)O)cc4cc(S(=O)(=O)O)cc(N)c4c3O)c(C)c2)ccc1N=Nc1c(S(=O)(=O)O)cc2cc(S(=O)(=O)O)cc(N)c2c1O

inactive
inactive
23.7 µM (active)

----------
# assay.summary: qHTS assay for identifying genotoxic compounds that show differential cytotoxicity against isogenic chicken DT40 cell lines with known DNA damage response pathways - wild type cell line (AID 743012); note: nearly all actives have a fitted effect of over 60% in size
# condition.context: DT40 wild type chicken cells viability, CellTiter-Glo, 40 h; series mostly up to 68.4 µM
# Text: U.S. Tox21 Program National Center for Advancing Translational Sciences [NCATS] NIH Chemical Genomics Center [NCGC] U.S. Environmental Protection Agency [EPA] National Institutes of Environmental Health Sciences [NIEHS] National Toxicology Program [NTP] U.S. Food and Drug Administration [FDA] Tox21 Assay Overview: DNA repair pathways play a critical role in cellular homeostasis by repairing DNA damage induced by endogenous processes and xenobiotics. […]
Records with an inconclusive call do not appear. Active and inactive are the calls of the source. Calls come from the whole dose curve; as a rule, active = well fitted cell-killing curve with a large enough effect in the repeat runs; inconclusive = weak or mixed curves, or effect the other way; inactive = no such curve, though single readings can be large or run the other way.
Answer with one of the outcomes label 1 (active), label 0 (inactive)

Completed entries (count: 3):
C=CC[C@@H]1/C=C(\C)C[C@H](C)C[C@H](OC)[C@H]2O[C@@](O)(C(=O)C(=O)N3CCCC[C@H]3C(=O)O[C@H](/C(C)=C/[C@@H]3CC[C@@H](O)[C@H](OC)C3)[C@H](C)[C@@H](O)CC1=O)[C@H](C)C[C@@H]2OC
label 1
Nc1nc2[nH]cc(CCc3ccc(C(=O)N[C@@H](CCC(=O)O)C(=O)O)cc3)c2c(=O)[nH]1
label 1
NS(=O)(=O)c1cc2c(cc1Cl)NC(Cc1ccccc1)NS2(=O)=O (centres undefined)
label 0

Which outcome was assigned to CN(C)C=Nc1c(I)cc(I)c(CCC(=O)O)c1I in this test? label 0

Per the assay record, what outcome was assigned to CC(=O)N=c1sc(S(N)(=O)=O)nn1C ? label 0

Dear colleague, could you share the recorded outcome for O=[N+]([O-])c1ccc(Oc2ccc(N=C=S)cc2)cc1 when you have a moment? label 1

// return assay outcome for C[C@@](Cc1ccc(O)c(O)c1)(NN)C(=O)O label 1

Per the assay record, what outcome was assigned to COC1=C(C(=O)O)N2C(=O)[C@@H](NC(=O)[C@H](N)C3=CCC=CC3)[C@H]2SC1 ? label 0

Please let me know the test result on file for S=C=Nc1ccc(N=C=S)cc1 . label 0

----------
# assay.summary: qHTS assay for identifying genotoxic compounds that show differential cytotoxicity against isogenic chicken DT40 cell lines with known DNA damage response pathways - Rev3 mutant cell line (AID 743014); note: nearly all actives have a fitted effect of over 55% in size
# condition.context: chicken DT40 Rev3-/- viability, CellTiter-Glo, 40 h; series mostly up to 68.4 µM
# Source text: National Center for Advancing Translational Sciences [NCATS] NIH Chemical Genomics Center [NCGC] U.S. Environmental Protection Agency [EPA] National Institutes of Environmental Health Sciences [NIEHS] National Toxicology Program [NTP] U.S. Food and Drug Administration [FDA] DNA repair pathways play a critical role in cellular homeostasis by repairing DNA damage induced by endogenous processes and xenobiotics. […]
Results filed as inconclusive are left out. Calls of active or inactive are those of the source. Calls come from the whole dose curve; as a rule, active = well fitted cell-killing curve with a large enough effect in the repeat runs; inconclusive = weak or mixed curves, or effect the other way; inactive = no such curve, though single readings can be large or run the other way.
Your reply should match one of these outcome classes. class 1 (active), class 0 (inactive)

Please state the recorded outcome for this compound: O=C(NNCS(=O)(=O)O)c1ccncc1 class 0

Which outcome was entered for the compound CC[C@@H]1/C=C(\C)C[C@H](C)C[C@H](OC)[C@H]2O[C@@](O)(C(=O)C(=O)N3CCCC[C@H]3C(=O)O[C@H](/C(C)=C/[C@@H]3CC[C@@H](Cl)[C@H](OC)C3)[C@H](C)[C@@H](O)CC1=O)[C@H](C)C[C@@H]2OC in this test? class 0

Answer briefly: the call reported for Clc1cc(Cl)c(OCC#CI)cc1Cl in this assay. class 1

What outcome does the record of this test show for N[C@H](CC(=O)O)C(=O)O ? class 0

Recorded call for NC(N)=NCC1COc2ccccc2O1 (stereo unspecified) ? class 0

Given CC(C)NCC(O)COc1ccccc1-n1cccc1 (stereo unspecified) , state the outcome it received in this test. class 0

Cited source for all entries: PubChem BioAssay (Tox21)
